System: SR leukemia
Method notes: NCI-60 one-dose screen, 48 h (100 = growth as untreated, 0 = no growth, -100 = all killed)
Setup conditions: 10 µM unless noted
Description: Growth inhibition of the SR human tumor cell line is measured as a screen for anti-cancer activity. Cells are grown in 96 well plates and exposed to the test compound for 48 hours. Compounds are tested at a single concentration, which is 10^-5 M for most compounds. The reported endpoint is percent growth (GI% or GIPRCNT), where numbers from 0 - 100% represent growth inhibition, and numbers from -100% - 0 represent cell death. For example, a value of 40 represents 60% growth inhibition. […]
About 83,000 compounds went through this panel and 20% of them were active in at least one assay; those are over-represented in the sample as a whole.
Assign criterion met to entries whose growth meets or exceeds 20%; assign criterion not met to the rest.

Some solved entries appear below for comparison.
Cc1nc(N)ncc1-c1ccc2ncnc(N3CCc4cc(F)c(Cl)cc43)c2c1 : criterion met
COc1cc(CNC(=O)C[C@H](C)CCC=C(C)C)ccc1OCc1cn(-c2ccc(Br)cc2)nn1 : criterion met
COc1ccc(C(=O)/C=C/c2ccc3c(c2)OCCO3)cc1S(N)(=O)=O : criterion not met
Fc1ccc(N2CC(Cn3c(C(F)(F)F)cc4c(Cl)ncnc43)C2)c(F)c1 : criterion not met

Query :: Decide: growth of O=C1CCC(N2C(=O)c3cccc(NCCCCCC(=O)N4CCN(c5ccc6nc7c(nc6c5C(F)(F)F)C(=O)c5ncccc5C7=O)CC4)c3C2=O)C(=O)N1 (stereo not drawn) >= 20%?
Result :: criterion not met

Query :: Decide: growth of COc1cc(C2CC(c3cc(OC)c(OC)c(OC)c3)=Nc3c(N)nc(N)nc3N2)ccc1Oc1nc(Nc2ccc(F)cc2)nc(N(C)C)n1 (stereo not drawn) >= 20%?
Result :: criterion not met

Query :: Decide: growth of `COc1ccc(NC(=O)Cn2c(/C=C/c3ccc([N+](=O)[O-])cc3)nc3ccccc3c2=O)cc1` >= 20%?
Result :: criterion met

====

Tested on: MALME-3M melanoma
Method notes: NCI-60 one-dose screen, 48 h
Setup conditions: 10 µM unless noted
Compounds without any hit were thinned out: in the full panel of roughly 83,000, 20% have a hit. Active and inactive are the calls of the source. Rule for the calls: active = growth percent below 10; inactive = the rest.
# valid calls are 1 (active), 0 (inactive); nothing else

Query :: I would be grateful if you could indicate the recorded call for COc1cc(C2CC(c3cc(OC)c(OC)c(OC)c3)=Nc3c(N)nc(N)nc3N2)ccc1Oc1nc(Nc2ccc(F)cc2)nc(N(C)C)n1 (stereo not given) .
Result :: 0

Query :: I would be grateful if you could indicate the recorded call for `Fc1ccc(Nc2nnc(-c3c[nH]c4ccccc34)o2)cc1` .
Result :: 0

Query :: I would be grateful if you could indicate the recorded call for `OCCn1cc(-c2nc3ccc4[nH]ncc4c3c3c2CCCC3)cn1` .
Result :: 0

====

System: U251 CNS
Method notes: NCI-60 one-dose screen, 48 h
Setup conditions: 10 µM unless noted
Description: Growth inhibition of the U251 human tumor cell line is measured as a screen for anti-cancer activity. Cells are grown in 96 well plates and exposed to the test compound for 48 hours. Compounds are tested at a single concentration, which is 10^-5 M for most compounds. The reported endpoint is percent growth (GI% or GIPRCNT), where numbers from 0 - 100% represent growth inhibition, and numbers from -100% - 0 represent cell death. For example, a value of 40 represents 60% growth inhibition. […]
About 83,000 compounds went through this panel and 20% of them were active in at least one assay; those are over-represented in the sample as a whole. Calls of active or inactive are those of the source. Rule for the calls: active = growth percent below 10; inactive = the rest.
# valid calls are active, inactive; nothing else

Some solved entries appear below for comparison.
CC(C)C[C@H](NC(=O)[C@@H]1CCCCCCCCCCC(=O)N[C@@H](CC(=O)N2CCC[C@@H]2C2CCCC2)C(=O)N1)B(O)O : active
Cc1ccc(C(=O)Nc2cc(-c3ccncc3)cc(C(F)(F)F)c2)cc1C#Cc1cnc2cccnn12 : inactive
Cc1ccc(C(=O)Nc2cc(-n3ccnc3)cc(C(F)(F)F)c2)cc1-n1cc(-c2cnc3cccnn23)nn1 : inactive
COc1ccc2[nH]c(O)c(N=Nc3nc(-c4ccc(Cl)cc4)cs3)c2c1 : active
O=C(CSc1nc2ccccc2c(=O)[nH]1)NNC(=O)c1ccccc1Cl : inactive
Nc1nn2c(-c3cc4cc(Br)ccc4oc3=O)ccnc2c1N=Nc1ccccc1 : active
CN1CCN(CCS(=O)(=O)Nc2cc(-c3ccc4ncnc(Nc5ccc(F)c(Cl)c5)c4c3)cnc2Cl)CC1 : inactive
O=C(OCCOCCO)N(c1cccc(Br)c1)c1nc(SCCN2CCOCC2)nc2c1cnn2CC(Cl)c1ccc(Br)cc1 (centres undefined) : inactive

Lab note: next compound to report on.
Query :: I would be grateful if you could indicate the recorded call for `Cn1ncc2c(N)nc(Oc3ccccc3-c3ccccc3)nc21` .
Result :: inactive

====

The following compounds are listed with their measured growth values.
System: OVCAR-3 ovarian
Method notes: NCI-60 one-dose screen, 48 h (100 = growth as untreated, 0 = no growth, -100 = all killed)
Setup conditions: 10 µM unless noted
About 83,000 compounds went through this panel and 20% of them were active in at least one assay; those are over-represented in the sample as a whole.
Respond with the bare value in %.

Some compounds with recorded growth:
COc1cc(C2CC(c3ccc(Cl)cc3)=Nc3c(N)nc(N)nc3N2)ccc1Oc1nc(Nc2ccc(F)cc2)nc(N(C)C)n1 (stereo not drawn) : 65
N#Cc1c(NC(=O)N2CCOCC2)n(-c2ccc(OC(F)(F)F)cc2)c2cc(F)ccc12 : 111
COc1ccc(N=Nc2c(N)nn3c(-c4ccc(F)cc4)ccnc23)cc1 : 79.6

Turning now to a further record.
For record `C[C@@H](Nc1c(C#N)cnc2ccc(-c3cnc4[nH]ncc4c3)cc12)c1ccccc1` the listed growth is 3.49

====

System: SK-MEL-2 melanoma
Method notes: NCI-60 one-dose screen, 48 h (100 = growth as untreated, 0 = no growth, -100 = all killed)
Setup conditions: 10 µM unless noted
About 83,000 compounds went through this panel and 20% of them were active in at least one assay; those are over-represented in the sample as a whole.
Assign condition met to entries whose growth meets or exceeds 10%; assign condition not met to the rest.

Some solved entries appear below for comparison.
CCc1ccc(SC2c3cc(OC)ccc3Oc3nc(N)c(C#N)c(N)c32)cc1 (stereo not drawn) : condition not met
COc1ccc(C(=O)c2c(N)c(C#N)cn2-c2ccc([N+](=O)[O-])cc2)cc1 : condition met
Cn1cc(-c2cc3nc(-c4cn(C)c5ncccc45)cc(N)n3n2)c2cc(F)ccc21 : condition met

Query :: Decide: growth of COc1ccc(NC(=O)NN2C(=O)c3ccccc3N(C)C2c2ccc(OC)cc2)cc1 (stereo not drawn) >= 10%?
Result :: condition met

Query :: Decide: growth of `COc1ccc(-c2cc(C(=O)N=Nc3c(O)[nH]c4ccc(Cl)cc34)c3ccccc3n2)cc1OC` >= 10%?
Result :: condition met

Query :: Decide: growth of `COc1ccc(NC(=O)Cn2c(/C=C/c3ccc([N+](=O)[O-])cc3)nc3ccccc3c2=O)cc1` >= 10%?
Result :: condition met

Query :: Decide: growth of `C[C@H]1[C@@H](CC(=O)N[C@@H](Cc2coc3ccccc23)B(O)O)O[C@@H]2OC3(C)CC[C@H]4[C@H](C)CC[C@@H]1[C@@]24O3` >= 10%?
Result :: condition not met

====

The following compounds are listed with their measured growth values.
System: LOX IMVI melanoma
Method notes: NCI-60 one-dose screen, 48 h (100 = growth as untreated, 0 = no growth, -100 = all killed)
Setup conditions: 10 µM unless noted
This is part of a sample that, as a whole, favours compounds with a hit. Of some 83,000 tested, about 20% had one in any assay.
Respond with the bare value in %.

Cc1nn(-c2ccccc2)c2nc(C)n(CC(=O)N/N=C/c3ccccc3O)c(=O)c12 : 4.1
O=C(N/N=C/c1occc1Br)c1[nH]c2ccc(Br)cc2c1-c1ccccc1 : -100
Cc1cccc(NCC(=O)N2CCN(c3ncnc4c3cnn4-c3ccccc3)CC2)c1 : 53.8
C[C@@H]1CN(c2ccc3ncc(C#Cc4cncc(C(=O)Nc5ccc(CN6CCN(C)CC6)c(C(F)(F)F)c5)c4)n3n2)C[C@@H](C)O1 : -96.8
CCCCNc1ccc2c3c(cccc13)C(=O)N(NCC(O)COc1ccc3c(C)cc(=O)oc3c1)C2=O (centres undefined) : 81.3

Considering `O=C(Nc1nc2ccc([N+](=O)[O-])cc2s1)Nc1ccccc1F` , its growth with LOX IMVI melanoma was recorded as 10.5

Considering CCOC(=O)/C(F)=C/C1CC1C(c1ccccc1)c1ccccc1 (centres undefined) , its growth with LOX IMVI melanoma was recorded as 84.9

Considering `N#Cc1c(NC(=O)N2CCOCC2)n(-c2ccc(OC(F)(F)F)cc2)c2cc(F)ccc12` , its growth with LOX IMVI melanoma was recorded as 102

Considering `NS(=O)(=O)c1cccc(Nc2nc(SCC(=O)c3ccc(F)cc3)nc3ccccc23)c1` , its growth with LOX IMVI melanoma was recorded as -44.6
